Numbers sourced from PubChem BioAssay.

- assay info: P. aeruginosa biofilm formation inhibitors, primary screen, strain PAO1, LB-PBS medium, absorbance 600 nm (AID 1176); note: test concentration not given here
- experimental setup: P. aeruginosa PAO1 growth/biofilm, A600, 12 h; higher = more signal
Decide by z-score: equal to or exceeding 0.7 means TRUE, less means FALSE.

- COCCOC(=O)N1C(=O)[C@@]2(c3cc(C#CCNC(N)=O)ccc31)[C@H](c1ccc(OCCO)cc1)N1[C@H](c3ccccc3)[C@H](c3ccccc3)OC(=O)[C@H]1[C@@H]2C(N)=O: TRUE
- COC(=O)C1=CC(CCCO)=CC(C)N(Cc2cccc(OC(F)(F)F)c2)C=C1C(=O)OC (stereo unspecified): FALSE
- COc1cccc(/C=C(\C#N)C(=O)Nc2c(C)n(C)n(-c3ccccc3)c2=O)c1: TRUE
- COCCOC(=O)N1C(=O)[C@@]2(c3cc(C#CCC(C(=O)OC)C(=O)OC)ccc31)[C@H](C(=O)NC[C@H](O)c1ccccc1)[C@H]1C(=O)O[C@H](c3ccccc3)[C@H](c3ccccc3)N1[C@@H]2c1ccc(OCCO)cc1: TRUE
- COCCCNC(=O)[C@@]1(c2ccc([N+](=O)[O-])cc2)CC(=O)N(CC23CC4CC(CC(C4)C2)C3)[C@@H]1c1ccc(CO)cc1I: FALSE
- CC(C)N1CC=CC23O[C@@H]4/C=C\CCCOC(=O)C4[C@H]2C(=O)N(CCCCCCO)[C@@H]3C1=O (stereo partly specified): FALSE
- C=CCNC(=O)[C@@H]1[C@H]2C(=O)O[C@H](c3ccccc3)[C@H](c3ccccc3)N2[C@H](c2ccc(O)cc2)[C@@]12C(=O)Nc1ccc(C#CCC(C(=O)OC)C(=O)OC)cc12: TRUE
- COC(=O)C(CC#Cc1ccc2c(c1)[C@]1(C(=O)N2)[C@H](c2ccc(O)cc2)N2[C@H](c3ccccc3)[C@H](c3ccccc3)OC(=O)[C@H]2[C@@H]1C(=O)N1CCCCCCC1)C(=O)OC: TRUE
- COc1ccc(NC(=O)O[C@H]2[C@@H]3OC(=O)[C@H](Cc4cccc(Br)c4)C/C=C/C[C@@H](Cc4cccc(Br)c4)C(=O)O[C@H]3[C@@H](OC)O[C@@H]2CO)cc1: FALSE
- [N-]=[N+]=NC[C@H](Cc1ccccc1)NC(=O)c1ccccc1: FALSE
- CN(C)CCCCCCNC(=O)[C@@H]1C[C@@H]2C(=O)N[C@@H](CCCCN)C(=O)N2[C@@H]1c1ccc(O)cc1: TRUE
- C=CCC(OC(C)=O)[C@@H]1[C@@H](N(Cc2ccc(-c3cccc(C(F)(F)F)c3)o2)C(=O)c2ccc(C)cc2)c2cc(OCCCO)ccc2N1C(=O)Cc1ccc(OC)cc1 (stereo partly specified): FALSE
- COC(=O)[C@@]1(Cc2ccccc2CN=[N+]=[N-])N=C(c2ccc(OCCCO)cc2)O[C@H]1c1ccccc1: TRUE
- CCOC(=O)C[C@H]1[C@H](OC(=O)c2ccc(C(=O)c3ccccc3)cc2)[C@@H](NC(=O)CC(C)C)c2cc(OCCCO)ccc2N1C(=O)Cc1ccc(OC)cc1: FALSE
- COCCOC(=O)N1C(=O)[C@@]2(c3ccccc31)[C@H](c1ccc(OCCO)cc1)N1[C@H](c3ccccc3)[C@H](c3ccccc3)OC(=O)[C@H]1[C@@H]2C(=O)N1CCCCCCC1: TRUE
- CCCCNC(=O)c1ccc(C#C[Si](C(C)C)(C(C)C)C(C)C)c(OC(C)=O)c1: FALSE
- [N-]=[N+]=NCc1ccccc1C[C@@]1(C(=O)N2CCCCC2)N=C(c2ccc(OCCCO)cc2)O[C@@H]1c1ccccc1CN=[N+]=[N-]: TRUE
- C=C(COC)C(=O)CC[C@@H](OC(=O)c1cccnc1)c1ccccc1OCCO: FALSE
- COc1ccc(C(O)C2C=CC3C(=O)N(c4ccccc4)C(=O)C3N2Nc2ccc(C(C)C)cc2)c2ccccc12 (stereo unspecified): TRUE
- CCCNC(=O)[C@@]1(Sc2ccc(C)cc2)CC(=O)N(C(C)C)[C@@H]1c1ccc(CO)cc1I: FALSE
- O=C1O[C@H](c2ccccc2)[C@H](c2ccccc2)N2[C@H]1[C@@H](C(=O)O)[C@]1(C(=O)Nc3ccc(C#CC4(O)CCCCCC4)cc31)[C@H]2c1ccc(O)cc1: TRUE
- [N-]=[N+]=Nc1ccccc1C[C@]1(C(=O)NCc2ccccc2)COC(c2ccc(OCCCO)cc2)=N1: FALSE
- C=CCN1C(=O)[C@@]2(O[C@@H](CCO)[C@H]([Si](C)(C)c3ccc(OC)cc3)[C@H]2C)c2cc(N3CCOC3=O)ccc21: FALSE
- C=CCN1C(=O)[C@]2(O[C@H](CCO)[C@@H]([Si](C)(C)c3ccc(OC)cc3)[C@@H]2C)c2cc(N3C(=O)COc4ccccc43)ccc21: FALSE
- CCOC(=O)C[C@H]1[C@H](OC(=O)c2ccc(-c3ccccc3)cc2)[C@@H](NC(=O)CC(C)C)c2cc(OCCCO)ccc2N1C(=O)c1ccccc1: TRUE
